# experiment: Tolerability in Balb/c mice, plasma chemistry markers (Example 11)
# Type: in vivo
# measurementSetup: 50 mg/kg subcutaneously twice a week for four weeks
Strand notation (5' to 3'): a small letter for the sugar, then the base; units joined by * are phosphorothioate-linked, units joined directly phosphodiester-linked; [ ] holds rarer units or linkages, { } end groups; capitals alone tell only the bases. k = constrained ethyl (cEt); [5mC] = 5-methylcytosine; d = 2'-deoxy (DNA)

{"substance": "715487 (kA*kT*kT*dA*d[5mC]*dT*dT*d[5mC]*dA*dT*dA*dG*d[5mC]*kT*kT*kA) [compound 715487]", "resultUnits": "mg/dL", "BUN": 16}
{"substance": "716455 (antisense kG*kT*kT*dA*dT*dG*dT*dT*dT*dG*dG*dG*dT*kG*kT*kG) [compound 716455]", "resultUnits": "mg/dL", "BUN": 22}
{"substance": "716480 (antisense kG*k[5mC]*kA*dA*dG*dT*d[5mC]*dT*dT*dG*dT*dA*dA*kG*kT*kA) [compound 716480]", "resultUnits": "mg/dL", "BUN": 19}
{"substance": "715415 (k[5mC]*kG*kA*dA*d[5mC]*dA*dT*dG*d[5mC]*dT*dG*dT*dG*kG*kA*kG; antisense) [compound 715415]", "resultUnits": "mg/dL", "BUN": 17}
{"substance": "716513 (antisense kA*kA*kT*d[5mC]*dT*dT*dA*dA*dT*d[5mC]*dT*dG*dT*kG*kG*k[5mC]) [compound 716513]", "resultUnits": "mg/dL", "BUN": 17}
{"substance": "715483 (k[5mC]*kT*k[5mC]*dT*dT*dT*dG*dG*dA*dA*dA*d[5mC]*d[5mC]*kA*kT*kT) [compound 715483]", "resultUnits": "mg/dL", "BUN": 16}
{"substance": "716481 (antisense kT*k[5mC]*kA*dG*d[5mC]*dA*dT*dA*dG*dA*dA*dG*dT*kA*kG*kG) [compound 716481]", "resultUnits": "mg/dL", "BUN": 21}
{"substance": "716424 (antisense kG*k[5mC]*kA*dA*dT*dG*dG*dA*d[5mC]*dA*dA*dG*dG*kA*kA*kG) [compound 716424]", "resultUnits": "mg/dL", "BUN": 20}
{"substance": "715473 (kT*k[5mC]*kT*dT*dT*dA*dT*d[5mC]*dT*dA*dG*d[5mC]*dT*kT*kG*kG; antisense) [compound 715473]", "resultUnits": "mg/dL", "BUN": 20}
{"substance": "716454 (antisense k[5mC]*kG*kA*dG*dA*dT*dT*dT*dA*dA*dA*dT*dA*kA*kG*kG) [compound 716454]", "resultUnits": "mg/dL", "BUN": 14}
{"substance": "716502 (antisense k[5mC]*kA*k[5mC]*dA*dG*dT*dG*dA*dT*dT*dG*d[5mC]*dA*kT*kT*kT) [compound 716502]", "resultUnits": "mg/dL", "BUN": 17}

----------
# experiment: Cynomolgus monkey tolerability, body and organ weight measurements (Example 34)
# Type: in vivo
# measurementSetup: cynomolgus monkeys, 35 mg/kg subcutaneously, prior to necropsy
Quick reference: Terminal Body Weight of the listed items.
measurementType: Terminal Body Weight (g)

{"substance": "1198623 (CTAAGTAAGGTTTCCC; modified gapmer, further chemistry not given here) [compound 1198623]", "resultUnits": "g", "recordedValue": 2790}
{"substance": "958499 (ATTAGAGTATGTGGCA; 3-10-3 cEt gapmer, further chemistry not given here) [compound 958499]", "resultUnits": "g", "recordedValue": 2894}
{"substance": "1198831 (CACTTTTACATTAGGA; chemically modified gapmer, further chemistry not given here) [compound 1198831]", "resultUnits": "g", "recordedValue": 2788}
{"substance": "1076453 (GTAATATTGCAATCTG; 3-10-3 cEt gapmer, further chemistry not given here) [compound 1076453]", "resultUnits": "g", "recordedValue": 2955}
{"substance": "1198605 (GTAATATTGCAATCTG; modified gapmer, further chemistry not given here) [compound 1198605]", "resultUnits": "g", "recordedValue": 2968}
{"substance": "1197270 (TTAAAGTGTATGTCAG; cEt gapmer with 2'-OMe nucleoside, phosphorothioate, further chemistry not given here) [compound 1197270]", "resultUnits": "g", "recordedValue": 2852}
